- System: Escherichia coli
- test_description: Comparative in vitro antibacterial activity with trimethoprim against Escherichia coli CN314
- Type: functional
log10 MIC values, listed per item
reported_endpoint: log10 MIC (log10 of the value in µg/mL)

- compound: "Cc1ccnc2ccc(Cc3cnc(N)nc3N)cc12"
  measured_target: "Escherichia coli"
  reported_endpoint: "log10 MIC"
  experimental_value: 0.48
- compound: "CCc1cc(Cc2cnc(N)nc2N)cc2c1N(C)CCC2C (stereo unspecified)"
  measured_target: "Escherichia coli"
  reported_endpoint: "log10 MIC"
  experimental_value: 0.48
- compound: "COc1cc(Cc2cnc(N)nc2N)cc2c(C)cc(C)nc12"
  measured_target: "Escherichia coli"
  reported_endpoint: "log10 MIC"
  experimental_value: 0.48
- compound: "COc1cc(Cc2cnc(N)nc2N)cc2c1N(CCOC(C)=O)CCC2C (stereo unspecified)"
  measured_target: "Escherichia coli"
  reported_endpoint: "log10 MIC"
  experimental_value: 1.48
- compound: "COCCOc1cc(Cc2cnc(N)nc2N)cc2c1NCCC2"
  measured_target: "Escherichia coli"
  reported_endpoint: "log10 MIC"
  experimental_value: 2.00
- compound: "CN1CCCc2cc(Cc3cnc(N)nc3N)ccc21"
  measured_target: "Escherichia coli"
  reported_endpoint: "log10 MIC"
  experimental_value: 1.48
- compound: "COc1cc(Cc2cnc(N)nc2N)cc2cccnc12"
  measured_target: "Escherichia coli"
  reported_endpoint: "log10 MIC"
  experimental_value: 0.48
- compound: "Cc1ccnc2c([N+](=O)[O-])cc(Cc3cnc(N)nc3N)cc12"
  measured_target: "Escherichia coli"
  reported_endpoint: "log10 MIC"
  experimental_value: 1.00
- compound: "COc1cc(Cc2cnc(N)nc2N)cc2c1N(C)CCC2C (stereo unspecified)"
  measured_target: "Escherichia coli"
  reported_endpoint: "log10 MIC"
  experimental_value: 0.48
- compound: "CCOC(=O)C1CNc2c(cc(Cc3cnc(N)nc3N)cc2OC)C1 (stereo unspecified)"
  measured_target: "Escherichia coli"
  reported_endpoint: "log10 MIC"
  experimental_value: 1.48
- compound: "CCN1CC(CO)Cc2cc(Cc3cnc(N)nc3N)cc(OC)c21 (stereo unspecified)"
  measured_target: "Escherichia coli"
  reported_endpoint: "log10 MIC"
  experimental_value: 2.00
- compound: "COc1cc(Cc2cnc(N)nc2N)cc2c1NCCC2C (stereo unspecified)"
  measured_target: "Escherichia coli"
  reported_endpoint: "log10 MIC"
  experimental_value: 0.48
- compound: "COc1cc(Cc2cnc(N)nc2N)cc2c1N(CCO)CCC2C (stereo unspecified)"
  measured_target: "Escherichia coli"
  reported_endpoint: "log10 MIC"
  experimental_value: 1.48
- compound: "Nc1ncc(Cc2ccc3c(c2)CCCN3)c(N)n1"
  measured_target: "Escherichia coli"
  reported_endpoint: "log10 MIC"
  experimental_value: 1.48
- compound: "COCCOc1cc(Cc2cnc(N)nc2N)cc2cccnc12"
  measured_target: "Escherichia coli"
  reported_endpoint: "log10 MIC"
  experimental_value: 2.00
- compound: "Cc1ccnc2c(N)cc(Cc3cnc(N)nc3N)cc12"
  measured_target: "Escherichia coli"
  reported_endpoint: "log10 MIC"
  experimental_value: 1.00
- compound: "CCN1CCC(C)c2cc(Cc3cnc(N)nc3N)ccc21 (stereo unspecified)"
  measured_target: "Escherichia coli"
  reported_endpoint: "log10 MIC"
  experimental_value: 2.00
- compound: "COc1cc(Cc2cnc(N)nc2N)cc2c1NCC(COC(C)=O)C2 (stereo unspecified)"
  measured_target: "Escherichia coli"
  reported_endpoint: "log10 MIC"
  experimental_value: 1.48
- compound: "Cc1ccnc2ccc(Cc3cnc(N)nc3N)c(N)c12"
  measured_target: "Escherichia coli"
  reported_endpoint: "log10 MIC"
  experimental_value: 2.00
- compound: "COc1cc(Cc2cnc(N)nc2N)cc2c1NCC(CO)C2 (stereo unspecified)"
  measured_target: "Escherichia coli"
  reported_endpoint: "log10 MIC"
  experimental_value: 1.00
- compound: "COCCN1CCC(C)c2cc(Cc3cnc(N)nc3N)cc(OC)c21 (stereo unspecified)"
  measured_target: "Escherichia coli"
  reported_endpoint: "log10 MIC"
  experimental_value: 1.48
- compound: "COc1cc(Cc2cnc(N)nc2N)cc2c(C)ccnc12"
  measured_target: "Escherichia coli"
  reported_endpoint: "log10 MIC"
  experimental_value: 0.00
- compound: "CC1CCNc2ccc(Cc3cnc(N)nc3N)cc21 (stereo unspecified)"
  measured_target: "Escherichia coli"
  reported_endpoint: "log10 MIC"
  experimental_value: 1.48
- compound: "Nc1ncc(Cc2ccc3ncccc3c2)c(N)n1"
  measured_target: "Escherichia coli"
  reported_endpoint: "log10 MIC"
  experimental_value: 0.48
- compound: "CC1CC(C)c2cc(Cc3cnc(N)nc3N)cc(Cl)c2N1 (stereo unspecified)"
  measured_target: "Escherichia coli"
  reported_endpoint: "log10 MIC"
  experimental_value: 2.00
- compound: "COc1cc(Cc2cnc(N)nc2N)cc2c1NCCC2"
  measured_target: "Escherichia coli"
  reported_endpoint: "log10 MIC"
  experimental_value: 1.00

====

- System: Streptococcus pyogenes
- test_description: Comparative in vitro antibacterial activity of compound with trimethoprim against Streptococcus pyogenes CN10
- Type: functional
MIC values, listed per item

- compound: "COc1cc(Cc2cnc(N)nc2N)cc2c(C)cc(C)nc12"
  MIC [µg/mL]: 0.1
- compound: "CC1CCNc2ccc(Cc3cnc(N)nc3N)cc21 (stereo not given)"
  MIC [µg/mL]: 1
- compound: "COCCOc1cc(Cc2cnc(N)nc2N)cc2cccnc12"
  MIC [µg/mL]: 3
- compound: "COc1cc(Cc2cnc(N)nc2N)cc2c1N(CCOC(C)=O)CCC2C (stereo not given)"
  MIC [µg/mL]: 10
- compound: "Cc1ccnc2ccc(Cc3cnc(N)nc3N)cc12"
  MIC [µg/mL]: 3
- compound: "Nc1ncc(Cc2ccc3ncccc3c2)c(N)n1"
  MIC [µg/mL]: 3
- compound: "COc1cc(Cc2cnc(N)nc2N)cc2c(C)ccnc12"
  MIC [µg/mL]: 1
- compound: "CCN1CC(CO)Cc2cc(Cc3cnc(N)nc3N)cc(OC)c21 (stereo not given)"
  MIC [µg/mL]: 10
- compound: "COc1cc(Cc2cnc(N)nc2N)cc2c1NCCC2C (stereo not given)"
  MIC [µg/mL]: 1
- compound: "CC1CC(C)c2cc(Cc3cnc(N)nc3N)cc(Cl)c2N1 (stereo not given)"
  MIC [µg/mL]: 3

====

- System: Shigella flexneri
- test_description: Comparative in vitro antibacterial activity with trimethoprim against Shigella flexneri CN6007
- Type: functional

- compound: "COc1cc(Cc2cnc(N)nc2N)cc2c1NCCC2C (stereo not given)"
  MIC, µg/mL: 10
- compound: "COc1cc(Cc2cnc(N)nc2N)cc2cccnc12"
  MIC, µg/mL: 3
- compound: "COc1cc(Cc2cnc(N)nc2N)cc2c1N(C)CCC2C (stereo not given)"
  MIC, µg/mL: 10
- compound: "CCc1cc(Cc2cnc(N)nc2N)cc2c1N(C)CCC2C (stereo not given)"
  MIC, µg/mL: 10
- compound: "CC1CCNc2ccc(Cc3cnc(N)nc3N)cc21 (stereo not given)"
  MIC, µg/mL: 30
- compound: "CCN1CCC(C)c2cc(Cc3cnc(N)nc3N)ccc21 (stereo not given)"
  MIC, µg/mL: 100
- compound: "COc1cc(Cc2cnc(N)nc2N)cc2c1N(CCO)CCC2C (stereo not given)"
  MIC, µg/mL: 10
- compound: "Cc1ccnc2c([N+](=O)[O-])cc(Cc3cnc(N)nc3N)cc12"
  MIC, µg/mL: 10
- compound: "COCCOc1cc(Cc2cnc(N)nc2N)cc2c1NCCC2"
  MIC, µg/mL: 100
- compound: "Nc1ncc(Cc2ccc3ncccc3c2)c(N)n1"
  MIC, µg/mL: 10

====

- System: Serratia marcescens
- test_description: Comparative in vitro antibacterial activity with trimethoprim against Serratia marcescens CN2398
- Type: functional

- compound: "CCN1CC(CO)Cc2cc(Cc3cnc(N)nc3N)cc(OC)c21 (stereo unspecified)"
  MIC: "> 10 mg/L"
- compound: "COc1cc(Cc2cnc(N)nc2N)cc2c1NCC(CO)C2 (stereo unspecified)"
  MIC: "> 10 mg/L"
- compound: "COc1cc(Cc2cnc(N)nc2N)cc2c1N(CCOC(C)=O)CCC2C (stereo unspecified)"
  MIC: "> 10 mg/L"
- compound: "CCN1CCC(C)c2cc(Cc3cnc(N)nc3N)ccc21 (stereo unspecified)"
  MIC: "> 30 mg/L"
- compound: "CCOC(=O)C1CNc2c(cc(Cc3cnc(N)nc3N)cc2OC)C1 (stereo unspecified)"
  MIC: "> 10 mg/L"
- compound: "COCCOc1cc(Cc2cnc(N)nc2N)cc2cccnc12"
  MIC: "> 10 mg/L"
- compound: "Cc1ccnc2ccc(Cc3cnc(N)nc3N)c(N)c12"
  MIC: "> 10 mg/L"
- compound: "COCCOc1cc(Cc2cnc(N)nc2N)cc2c1NCCC2"
  MIC: "> 10 mg/L"
- compound: "CC1CC(C)c2cc(Cc3cnc(N)nc3N)cc(Cl)c2N1 (stereo unspecified)"
  MIC: "> 10 mg/L"
- compound: "COc1cc(Cc2cnc(N)nc2N)cc2c1NCC(COC(C)=O)C2 (stereo unspecified)"
  MIC: "> 10 mg/L"
- compound: "COCCN1CCC(C)c2cc(Cc3cnc(N)nc3N)cc(OC)c21 (stereo unspecified)"
  MIC: "> 10 mg/L"
- compound: "Cc1ccnc2c([N+](=O)[O-])cc(Cc3cnc(N)nc3N)cc12"
  MIC: "30 mg/L"
- compound: "COc1cc(Cc2cnc(N)nc2N)cc2c(C)cc(C)nc12"
  MIC: "1 mg/L"
- compound: "COc1cc(Cc2cnc(N)nc2N)cc2c1NCCC2"
  MIC: "3 mg/L"
- compound: "Cc1ccnc2c(N)cc(Cc3cnc(N)nc3N)cc12"
  MIC: "30 mg/L"
- compound: "COc1cc(Cc2cnc(N)nc2N)cc2c1N(CCO)CCC2C (stereo unspecified)"
  MIC: "10 mg/L"

Where do these numbers come from? They come from ChEMBL document CHEMBL1124638.
